# System name: 19 DB-1
# Test protocol: CELIA on monoclonal 19 DB-1; coated antigen not given
Where no end group is shown, it is not given here.
Experimental readout: IC50 (nM)

Data request: IC50 for Ac-ISRRLIDRTNANFLC (not fully specified; printed as Ac-25I-S-R-R-L-I-D-R-T-N-A-N-F-L38-C) [GP4] ?
Data returned: 18

Data request: IC50 for Ac-ISRRLIDRTNANFLVWPPC [GP10] ?
Data returned: 18
